Provenance of the data: paper PMC8491553

- Experimental System: SARS-CoV-2 main protease (3CLpro) (Severe acute respiratory syndrome coronavirus 2, UniProt P0DTD1)
- Type: biochemical
Observation Type: activity as main protease inhibitor (in words)

Please review the following examples before continuing.
- Molecule: "C#CCN1CC2(C)CN(CC#C)CC(C)(C1)C2=O [Compound 4c]"
  Test Value: "lower micromolar range"
- Molecule: "CC12CN(Cc3ccccc3)CC(C)(CN(Cc3ccccc3)C1)C2=O [Compound 4d]"
  Test Value: "submicromolar activity"
- Molecule: "Cc1cc(CN2CC3(C)CN(Cc4cc(C)no4)CC(C)(C2)C3=O)on1 [Compound 4o]"
  Test Value: "lower micromolar range"
- Molecule: "CC(C)(C)OC(=O)NCCn1cc(CN2CC3(C)CN(Cc4cn(CCNC(=O)OC(C)(C)C)nn4)CC(C)(C2)C3=O)nn1 [Compound 4q]"
  Test Value: "submicromolar activity"
- Molecule: "CC(C)(C)OC(=O)Cn1cc(CN2CC3(C)CN(Cc4cn(CC(=O)OC(C)(C)C)nn4)CC(C)(C2)C3=O)nn1 [Compound 4p]"
  Test Value: "lower micromolar range"
- Molecule: "CC12CN(Cc3cn(Cc4ccccc4)nn3)CC(C)(CN(Cc3cn(Cc4ccccc4)nn3)C1)C2=O [Compound 4r]"
  Test Value: "lower micromolar range"
- Molecule: "CC12CN(CC#N)CC(C)(CN(CC#N)C1)C2=O [Compound 4l]"
  Test Value: "lower micromolar range"

Read the next record carefully.
The reported activity as main protease inhibitor (in words) of the molecule CC12CN(CC(=O)O)CC(C)(CN(CC(=O)O)C1)C2=O [Compound 4m] was lower micromolar range
